Where these numbers come from: paper PMC11931385

EXPERIMENTAL_SYSTEM: T1, Rb^P H686Y (human, UniProt P06400 380-788, H686Y)
T1 construct: also called variant 58
T1 sequence (looked up): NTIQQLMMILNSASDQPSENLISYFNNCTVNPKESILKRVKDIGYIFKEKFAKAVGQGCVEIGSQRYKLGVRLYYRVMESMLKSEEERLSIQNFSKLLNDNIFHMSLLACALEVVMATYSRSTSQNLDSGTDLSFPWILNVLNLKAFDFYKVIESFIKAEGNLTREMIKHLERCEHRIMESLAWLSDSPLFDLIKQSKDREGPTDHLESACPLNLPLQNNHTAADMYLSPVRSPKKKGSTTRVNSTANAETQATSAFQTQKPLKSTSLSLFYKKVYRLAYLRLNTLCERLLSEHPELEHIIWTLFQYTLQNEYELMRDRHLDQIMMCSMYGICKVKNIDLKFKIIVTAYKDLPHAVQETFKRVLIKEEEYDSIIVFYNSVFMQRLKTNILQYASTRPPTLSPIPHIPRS
TEST_DETAILS: fluorescence polarisation; 37 °C, after the 25 °C reading ramped over 7 min to 37 °C and 2 min incubation; unlabeled Rb^P against 1.5 nM TMR-E2F1^TD or 7.5 nM TMR-E7^LxCxE; 25 mM Tris pH 8.0, 200 mM NaCl, 1 mM DTT, 0.1% Tween-20; apparent Kd
CONDITION_LABEL: both partners purified
No end group written: not given here. TMR = tetramethyl rhodamine dye
ENDPOINT_LABEL: Kd (nM)
One number for each entry, in nM.

Consider DLYCYEQLN (also: TMR label, position not given here, source: synthetic peptide, bought: GenScript) [TMR-E7^LxCxE, LxCxE peptide of the E7 oncoprotein from HPV] . Its measured Kd is 14

Next:
Recorded Kd (binder {TMR}-GEGIRDLFDCDFGDLTPLD (also called E2F^TD; source: synthetic peptide, bought: GenScript) [TMR-E2F1^TD, peptide of the E2F1 transactivation domain] ): 35
